# experimentalTarget: neuronal nicotinic acetylcholine receptors (Rattus norvegicus, UniProt P09483+P12390)
# Construct: crude synaptic membrane preparations from whole rat brain; from tissue; host or cells: whole rat brain, crude synaptic membranes
# Sequence (P09483 31-630): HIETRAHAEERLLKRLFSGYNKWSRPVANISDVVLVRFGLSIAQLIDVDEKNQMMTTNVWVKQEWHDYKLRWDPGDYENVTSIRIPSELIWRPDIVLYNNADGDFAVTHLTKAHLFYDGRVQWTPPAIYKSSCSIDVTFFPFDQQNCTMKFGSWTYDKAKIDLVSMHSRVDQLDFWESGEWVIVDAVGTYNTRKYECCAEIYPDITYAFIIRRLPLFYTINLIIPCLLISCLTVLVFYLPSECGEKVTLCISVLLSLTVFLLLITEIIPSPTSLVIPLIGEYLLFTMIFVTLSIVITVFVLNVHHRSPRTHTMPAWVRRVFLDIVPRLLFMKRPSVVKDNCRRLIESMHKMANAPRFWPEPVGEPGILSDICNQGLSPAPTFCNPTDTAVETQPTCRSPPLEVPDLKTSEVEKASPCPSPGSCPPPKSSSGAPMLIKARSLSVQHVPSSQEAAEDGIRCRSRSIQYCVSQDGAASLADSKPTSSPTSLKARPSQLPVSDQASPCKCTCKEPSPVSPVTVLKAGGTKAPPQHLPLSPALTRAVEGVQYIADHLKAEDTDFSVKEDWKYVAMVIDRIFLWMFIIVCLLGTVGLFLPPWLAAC
# Sequence (P12390 25-500): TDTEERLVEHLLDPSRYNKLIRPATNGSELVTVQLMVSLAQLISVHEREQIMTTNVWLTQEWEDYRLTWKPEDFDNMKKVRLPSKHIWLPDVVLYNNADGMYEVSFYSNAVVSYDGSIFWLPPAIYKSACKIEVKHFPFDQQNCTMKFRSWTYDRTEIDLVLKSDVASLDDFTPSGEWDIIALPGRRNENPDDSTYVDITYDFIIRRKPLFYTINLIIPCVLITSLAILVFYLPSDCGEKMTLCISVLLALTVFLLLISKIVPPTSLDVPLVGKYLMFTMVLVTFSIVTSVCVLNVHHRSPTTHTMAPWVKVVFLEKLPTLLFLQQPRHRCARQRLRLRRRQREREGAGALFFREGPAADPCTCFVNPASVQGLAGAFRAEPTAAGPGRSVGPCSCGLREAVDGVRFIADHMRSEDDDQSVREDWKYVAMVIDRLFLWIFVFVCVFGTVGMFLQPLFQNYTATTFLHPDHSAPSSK
# measurementNotes: [3H]-cytisine binding to neuronal nicotinic acetylcholine receptors, whole rat brain membranes
# runConditions: [3H]-cytisine 1.25 nM, whole rat brain membranes; read-out: [3H] CYT Ki
pKi: −log10 of the molar value. Counter-ions that a name gives are not always drawn.
Use 10 as the dividing line for pKi, with the line itself on the Satisfied side and lower values as Not satisfied.

// below: answered compounds
CCCc1cc(OC[C@@H]2CCN2)cnc1Cl [Example 28, hydrochloride]    Satisfied
Cc1ncc(OC[C@H]2CCN2)cc1Br [Example 124, tosylate]    Satisfied
Clc1ccc(OC[C@H]2CCN2)cn1 [Example 4, hydrochloride]    Satisfied
Cl.O=[N+]([O-])c1cncc(OC[C@@H]2CCN2)c1 [Example 132, hydrochloride]    Not satisfied

Q: Does the compound CCc1cc(OC[C@@H]2CCN2)cnc1Cl [Example 27, hydrochloride] have recorded pKi that is 10 or more?
A: Satisfied

Q: Could you please find out whether COc1ccc(OC[C@H]2CCN2)cn1 [Example 119] has pKi that meets 10 or exceeds it?
A: Not satisfied

Q: Could you verify whether the entry C=Cc1cncc(OC[C@@H]2CCN2)c1 [Example 22, dihydrochloride] shows pKi of no less than 10?
A: Not satisfied

Q: Identify whether the reported pKi of the following compound is 10 or greater: Clc1cc(OC[C@@H]2CCN2)cnc1Cl [Example 15, hydrochloride]
A: Satisfied

Q: In plain terms: is recorded pKi at least 10 for Clc1ncc(OC[C@@H]2CCN2)cc1Br [Example 17, hydrochloride] ?
A: Satisfied

Q: # check: pKi of Cc1cc(OC[C@@H]2CCN2)cnc1Cl [Example 25, citrate] is greater than or equal to 10
A: Satisfied

Q: Would you say Fc1ncc(OC[C@@H]2CCN2)cc1Br [Example 31] shows pKi at minimum 10?
A: Satisfied

Q: Confirm if pKi reported for the compound N#Cc1ccc(OC[C@@H]2CCN2)cn1 [Example 123, hydrochloride] is 10 or above.
A: Not satisfied

Q: Given the entry Cc1ncc(OC[C@@H]2CCN2)cc1Br [Example 34, dihydrochloride] , answer whether its pKi meets or surpasses 10.
A: Satisfied

====

# experimentalTarget: neuronal nicotinic acetylcholine receptors (Rattus norvegicus, UniProt P09483+P12390)
# Construct: crude synaptic membrane preparations from whole rat brain; from tissue; host or cells: whole rat brain, crude synaptic membranes
# measurementNotes: [3H]-cytisine binding to neuronal nicotinic acetylcholine receptors, whole rat brain membranes
# runConditions: [3H]-cytisine 1.25 nM, whole rat brain membranes; read-out: [3H] CYT Ki
Structures can show the parent of a compound that is named as a salt.
For each record, write down the corresponding Ki.
Numbers only, in nM.

Check out these entries, answers already filled in.
C=Cc1cc(OC[C@H]2CCN2)cnc1F [Example 129]    0.09
Fc1ccc(OC[C@@H]2CCN2)cn1 [Example 9]    0.16
C=Cc1cc(OC[C@@H]2CCN2)cnc1F [Example 131, tosylate]    0.13
CN1CC[C@H]1COc1ccc(C(F)F)nc1 [Example 113, citrate]    0.17
CCc1cncc(OC[C@@H]2CCN2)c1 [Example 23, hydrochloride]    0.11

Batch request: Ki per item, same order as input.
1. CCc1cc(OC[C@@H]2CCN2)cnc1F [Example 126]
2. Clc1cc(OC[C@H]2CCN2)cnc1Cl [Example 16, hydrochloride]
3. Fc1ccc(OCC2CCN2)cn1 (centres unmarked) [Example 8]
4. Cc1ccc(OC[C@@H]2CCN2)c(F)n1 [Example 117, tosylate]
5. Cc1cncc(OC[C@H]2CCN2)c1 [Example 14, hydrochloride]

A:
1. 0.07
2. 0.06
3. 0.06
4. 0.17
5. 0.18

Batch of 4 compounds: report Ki for each.
1. Clc1cncc(OC[C@H]2CCN2)c1 [Example 114, tosylate]
2. Cc1cc(OC[C@@H]2CCN2)cnc1F [Example 32]
3. Fc1cncc(OC[C@@H]2CCN2)c1 [Example 10, dihydrochloride]
4. CCCCc1cc(OC[C@@H]2CCN2)cnc1Cl [Example 29, hydrochloride]

A:
1: 0.12; 2: 0.1; 3: 0.09; 4: 0.16

Values compiled from patent US6403575B1.
